Cited source: BigSolDB 2.1

details: in water, 288.15 K
reported property: solubility (mole fraction)
// response body must contain only the number

# lookup: solubility (mole fraction) of `Nc1ccccc1N` 0.00495

---

details: in methanol, 290.65 K
reported property: solubility (mole fraction)
// response body must contain only the number

# lookup: solubility (mole fraction) of `Nc1ccccc1N` 0.0572

---

details: in methanol, 293.15 K
reported property: solubility (mole fraction)
// response body must contain only the number

# lookup: solubility (mole fraction) of `Nc1ccccc1N` 0.0596

---

details: in water, 295.65 K
reported property: solubility (mole fraction)

# lookup: solubility (mole fraction) of `Nc1ccccc1N` 0.00573

---

details: in ethanol, 318.15 K
reported property: solubility (mole fraction)
// response body must contain only the number

# lookup: solubility (mole fraction) of `Nc1ccccc1N` 0.0233
